Assay: Steady-state pharmacokinetics of film-coated granules in pediatric subjects by age group
Type: in vivo, human
Details: human, blood, oral, Week 2; 3 to <6 years old; pre-adjustment, 3 sachets, 120 mg/45 mg; film-coated granules; read-out: AUC, Geometric Mean
Method: The study was designed to assess the steady state AUC and to assess the pharmacokinetics (PK) of Compound 1/Compound 2 in pediatric subjects by age group. […] Subjects were enrolled in this study and dosed with film-coated granules containing Compound 1/Compound 2 as generally described above in Example 3. [table] An intensive PK sample draw was done at the Week 2 visit with blood samples taken immediately prior to dose (0 hour) and at 2, 4, 6, and 12 hours post dose.
parameter: AUC (ng·h/mL)

- entry smiles: "COC(=O)N[C@H](C(=O)N1CCC[C@H]1c1nc2cc([C@H]3CC[C@H](c4cc5nc([C@@H]6CCCN6C(=O)[C@@H](NC(=O)OC)[C@@H](C)OC)[nH]c5cc4F)N3c3cc(F)c(N4CCC(c5ccc(F)cc5)CC4)c(F)c3)c(F)cc2[nH]1)[C@@H](C)OC"
  parameter: "AUC"
  numeric result: 871

* * *

test: Steady-state pharmacokinetics of film-coated granules in pediatric subjects by age group; type: in vivo, human; settings: human, blood, oral, Week 2; 6 to <9 years old; post-adjustment, 4 sachets, 200 mg/80 mg; N 9; film-coated granules; read-out: AUC

- molecule: "CC(C)(C)[C@@H]1NC(=O)O[C@@H]2CCC[C@H]2OC/C=C/C(F)(F)c2nc3ccccc3nc2O[C@@H]2C[C@@H](C(=O)N[C@]3(C(=O)NS(=O)(=O)C4(C)CC4)C[C@H]3C(F)F)N(C2)C1=O [Compound 1]"
  measurement units: "ng·h/mL"
  AUC: 5970

* * *

Listed next: entries and their corresponding AUC(0-t).
assay: Single-dose crossover: bioavailability of Compound 1/Compound 2 mini-tablets; format: in vivo, human; details: human, in vivo, oral, Regimen J: two Compound 1 tablets (100 mg each) and three Compound 2 tablets (40 mg each), fasting; N = 14; geometric mean
parameter: AUC(0-t) (ng·h/mL)

- entry smiles: "COC(=O)N[C@H](C(=O)N1CCC[C@H]1c1nc2cc([C@H]3CC[C@H](c4cc5nc([C@@H]6CCCN6C(=O)[C@@H](NC(=O)OC)[C@@H](C)OC)[nH]c5cc4F)N3c3cc(F)c(N4CCC(c5ccc(F)cc5)CC4)c(F)c3)c(F)cc2[nH]1)[C@@H](C)OC"
  parameter: "AUC(0-t)"
  measurement units: "ng·h/mL"
  numeric result: 1190
- entry smiles: "CC(C)(C)[C@@H]1NC(=O)O[C@@H]2CCC[C@H]2OC/C=C/C(F)(F)c2nc3ccccc3nc2O[C@@H]2C[C@@H](C(=O)N[C@]3(C(=O)NS(=O)(=O)C4(C)CC4)C[C@H]3C(F)F)N(C2)C1=O"
  parameter: "AUC(0-t)"
  measurement units: "ng·h/mL"
  numeric result: 738

* * *

assay: Phase 1 single-dose crossover: bioavailability and food effect of Compound 1/Compound 2 bilayer tablets; type: in vivo, human; conditions: human, in vivo, oral, Regimen D: single dose separate Compound 1 tablets (3 × 100 mg) and Compound 2 tablets (3 × 40 mg), fasting; N = 23; harmonic mean
Reported half-life values follow for various molecules

- entry smiles: "COC(=O)N[C@H](C(=O)N1CCC[C@H]1c1nc2cc([C@H]3CC[C@H](c4cc5nc([C@@H]6CCCN6C(=O)[C@@H](NC(=O)OC)[C@@H](C)OC)[nH]c5cc4F)N3c3cc(F)c(N4CCC(c5ccc(F)cc5)CC4)c(F)c3)c(F)cc2[nH]1)[C@@H](C)OC"
  half-life (h): 12.5
- entry smiles: "CC(C)(C)[C@@H]1NC(=O)O[C@@H]2CCC[C@H]2OC/C=C/C(F)(F)c2nc3ccccc3nc2O[C@@H]2C[C@@H](C(=O)N[C@]3(C(=O)NS(=O)(=O)C4(C)CC4)C[C@H]3C(F)F)N(C2)C1=O"
  half-life (h): 5.7

* * *

assay: Steady-state pharmacokinetics of film-coated granules in pediatric subjects by age group; format: in vivo, human; details: human, blood, oral, Week 2; 3 to <6 years old; post-adjustment, 3 sachets, 150 mg/60 mg; N 10; film-coated granules; read-out: AUC

- entry smiles: "CC(C)(C)[C@@H]1NC(=O)O[C@@H]2CCC[C@H]2OC/C=C/C(F)(F)c2nc3ccccc3nc2O[C@@H]2C[C@@H](C(=O)N[C@]3(C(=O)NS(=O)(=O)C4(C)CC4)C[C@H]3C(F)F)N(C2)C1=O"
  AUC / ng·h/mL: 6700

* * *

Recorded Tmax for the following compounds
assay: Phase 1 single-dose crossover: bioavailability and food effect of Compound 1/Compound 2 bilayer tablets; format: in vivo, human; details: human, in vivo, oral, Regimen C: single dose bilayer tablets 300 mg/120 mg with high fat breakfast; N = 23; median
parameter: Tmax (h)

- compound: "CC(C)(C)[C@@H]1NC(=O)O[C@@H]2CCC[C@H]2OC/C=C/C(F)(F)c2nc3ccccc3nc2O[C@@H]2C[C@@H](C(=O)N[C@]3(C(=O)NS(=O)(=O)C4(C)CC4)C[C@H]3C(F)F)N(C2)C1=O [Compound 1]"
  numeric result: 5
- compound: "COC(=O)N[C@H](C(=O)N1CCC[C@H]1c1nc2cc([C@H]3CC[C@H](c4cc5nc([C@@H]6CCCN6C(=O)[C@@H](NC(=O)OC)[C@@H](C)OC)[nH]c5cc4F)N3c3cc(F)c(N4CCC(c5ccc(F)cc5)CC4)c(F)c3)c(F)cc2[nH]1)[C@@H](C)OC [Compound 2]"
  numeric result: 5

* * *

Experiment: Predicted PK exposures (Pop-PK AUC) in pediatric subjects
Type: in vivo
Design: concentration or dose not given beside the values
Conditions: human, blood, oral, Table 13; 9 to <12 years old; N 10; predicted from all PK information collected in the study
Source text: The predicted PK exposures (“Pop-PK AUC”) of Compound 1/Compound 2 based on all PK information collected in the study (including data from other study weeks) is shown in Table 13 and Table 13a.
Below, each of the molecules is paired with its reported AUC value.
parameter: AUC (ng·h/mL)

- entry smiles: "CC(C)(C)[C@@H]1NC(=O)O[C@@H]2CCC[C@H]2OC/C=C/C(F)(F)c2nc3ccccc3nc2O[C@@H]2C[C@@H](C(=O)N[C@]3(C(=O)NS(=O)(=O)C4(C)CC4)C[C@H]3C(F)F)N(C2)C1=O"
  parameter: "AUC"
  numeric result: 5180
- entry smiles: "COC(=O)N[C@H](C(=O)N1CCC[C@H]1c1nc2cc([C@H]3CC[C@H](c4cc5nc([C@@H]6CCCN6C(=O)[C@@H](NC(=O)OC)[C@@H](C)OC)[nH]c5cc4F)N3c3cc(F)c(N4CCC(c5ccc(F)cc5)CC4)c(F)c3)c(F)cc2[nH]1)[C@@H](C)OC"
  parameter: "AUC"
  numeric result: 1440

* * *

test: Steady-state pharmacokinetics of film-coated granules in pediatric subjects by age group; format: in vivo, human; conditions: human, in vivo, oral, Week 2; 6 to <9 years old; post-adjustment, 4 sachets, 200 mg/80 mg; N 9; film-coated granules; read-out: AUC

- molecule: "COC(=O)N[C@H](C(=O)N1CCC[C@H]1c1nc2cc([C@H]3CC[C@H](c4cc5nc([C@@H]6CCCN6C(=O)[C@@H](NC(=O)OC)[C@@H](C)OC)[nH]c5cc4F)N3c3cc(F)c(N4CCC(c5ccc(F)cc5)CC4)c(F)c3)c(F)cc2[nH]1)[C@@H](C)OC [Compound 2]"
  AUC (ng·h/mL): 1520

* * *

Test: Steady-state pharmacokinetics of film-coated granules in pediatric subjects by age group
Format: in vivo, human
Settings: human, blood, oral, Week 2; 9 to <12 years old; pre-adjustment, 5 sachets, 200 mg/75 mg Compound 1/Compound 2; film-coated granules; read-out: AUC, Geometric Mean
Experimental: The study was designed to assess the steady state AUC and to assess the pharmacokinetics (PK) of Compound 1/Compound 2 in pediatric subjects by age group. […] Subjects were enrolled in this study and dosed with film-coated granules containing Compound 1/Compound 2 as generally described above in Example 3. [table] An intensive PK sample draw was done at the Week 2 visit with blood samples taken immediately prior to dose (0 hour) and at 2, 4, 6, and 12 hours post dose.

- entry smiles: "COC(=O)N[C@H](C(=O)N1CCC[C@H]1c1nc2cc([C@H]3CC[C@H](c4cc5nc([C@@H]6CCCN6C(=O)[C@@H](NC(=O)OC)[C@@H](C)OC)[nH]c5cc4F)N3c3cc(F)c(N4CCC(c5ccc(F)cc5)CC4)c(F)c3)c(F)cc2[nH]1)[C@@H](C)OC"
  AUC, ng·h/mL: 1250

* * *

assay: Single-dose crossover: bioavailability of Compound 1/Compound 2 mini-tablets; type: in vivo, human; conditions: human, in vivo, oral, Regimen F: single dose mini-tablets 200 mg/120 mg Compound 1/Compound 2, fasting; N = 14; geometric mean
Let's look at some molecules and their measured Cmax.

- molecule: "CC(C)(C)[C@@H]1NC(=O)O[C@@H]2CCC[C@H]2OC/C=C/C(F)(F)c2nc3ccccc3nc2O[C@@H]2C[C@@H](C(=O)N[C@]3(C(=O)NS(=O)(=O)C4(C)CC4)C[C@H]3C(F)F)N(C2)C1=O [Compound 1]"
  measurement units: "ng/mL"
  Cmax: 123
- molecule: "COC(=O)N[C@H](C(=O)N1CCC[C@H]1c1nc2cc([C@H]3CC[C@H](c4cc5nc([C@@H]6CCCN6C(=O)[C@@H](NC(=O)OC)[C@@H](C)OC)[nH]c5cc4F)N3c3cc(F)c(N4CCC(c5ccc(F)cc5)CC4)c(F)c3)c(F)cc2[nH]1)[C@@H](C)OC [Compound 2]"
  measurement units: "ng/mL"
  Cmax: 96

Reference source for all entries: patent US20210023012A1
